meta.source: patent US20110257076A1

Molecular target: human IGF-1 receptor (human, UniProt P08069 31-1367)
Assay: cell-based or functional assay
Ends that are not written are not given here.
Recorded % IGF, total phosphorylation, IGF-1 Receptor, one value per entry.
Write the value in % as a bare number.

Known results for binders:
IGF-1 A (H8 A9 N21):B(H5D10Y16L17 A22) DPI A-COOH (ligand, disulfide (positions not given here); not fully specified (bridges)) chain 1: GIVDECCHASCDLRRLEMYCN-OH chain 2: GPEHLCGADLVDALYLVCGDAGFY-NH2 :: 7.7
IGF-1 A (H8 A9 N21):B(H5D10Y16L17) DPI A-COOH (ligand, disulfide (positions not given here); not fully specified (bridges)) chain 1: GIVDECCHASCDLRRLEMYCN-OH chain 2: GPEHLCGADLVDALYLVCGDRGFY-NH2 :: 181
IGF-1 A:B(D10Y16L17) DPI A-COOH (ligand, disulfide (positions not given here); not fully specified (bridges)) chain 1: GIVDECCFRSCDLRRLEMYCA-OH chain 2: GPETLCGADLVDALYLVCGDRGFY-NH2 :: 112
IGF-1 A:B (H5D10Y16L17) DPI (ligand, disulfide (positions not given here); not fully specified (bridges)) chain 1: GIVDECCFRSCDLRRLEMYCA-NH2 chain 2: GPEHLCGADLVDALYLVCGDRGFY-NH2 :: 7.1

Kindly consider the entry below.
Name the reported % IGF, total phosphorylation, IGF-1 Receptor value associated with the binder IGF-1 A:B(E10Y16L17) (ligand, disulfide (positions not given here); not fully specified (bridges)) chain 1: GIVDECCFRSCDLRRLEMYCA-NH2 chain 2: GPETLCGAELVDALYLVCGDRGFYFNKPT-NH2
13
